Test: Molar enthalpy of transition or fusion
Conditions: Crystal; DSC
Measured Molar enthalpy of transition or fusion values are reported for all entries that follow.
Please give a number only; it is taken to be in kcal/mol.

compound: CCCC[N+]1(C)CCCC1.N#CC(=C=[N-])C#N [1-butyl-1-methylpyrrolidinium tricyanomethanide]
measured.parameter: Molar enthalpy of transition or fusion
quantitative.result: 2.25
--
compound: CCCC[N+]1(C)CCCC1.O=S(=O)([O-])C(F)(F)F [1-butyl-1-methylpyrrolidinium trifluoromethanesulfonate]
measured.parameter: Molar enthalpy of transition or fusion
quantitative.result: 2.88
--
compound: CCCC[N+]1(C)CCCC1.N#C[B-](C#N)(C#N)C#N [1-butyl-1-methylpyrrolidinium tetracyanoborate]
measured.parameter: Molar enthalpy of transition or fusion
quantitative.result: 4.97

The compound identified as OCCc1ccccc1 registered its Molar enthalpy of transition or fusion at 2.31

---

Details: Crystal; DTA
± gives the expanded uncertainty stated by the source.
measured.parameter: Normal melting temperature

# annotated cases, reported Normal melting temperature shown
compound: CCCC[N+]1(C)CCCC1.O=S(=O)([O-])C(F)(F)F [1-butyl-1-methylpyrrolidinium trifluoromethanesulfonate]
Normal melting temperature: -0.2 ± 0.4 °C
//
compound: CCCC[N+]1(C)CCCC1.N#CC(=C=[N-])C#N [1-butyl-1-methylpyrrolidinium tricyanomethanide]
Normal melting temperature: -8.8 ± 0.4 °C
//
compound: CCCC[N+]1(C)CCCC1.N#C[B-](C#N)(C#N)C#N [1-butyl-1-methylpyrrolidinium tetracyanoborate]
Normal melting temperature: 19.7 ± 0.4 °C

Sample OCCc1ccccc1 ; Normal melting temperature observed: -27 ± 1 °C
